Molecular target: human D2 receptor (Homo sapiens (Human), UniProt P14416)
Sequence (P14416 whole entry): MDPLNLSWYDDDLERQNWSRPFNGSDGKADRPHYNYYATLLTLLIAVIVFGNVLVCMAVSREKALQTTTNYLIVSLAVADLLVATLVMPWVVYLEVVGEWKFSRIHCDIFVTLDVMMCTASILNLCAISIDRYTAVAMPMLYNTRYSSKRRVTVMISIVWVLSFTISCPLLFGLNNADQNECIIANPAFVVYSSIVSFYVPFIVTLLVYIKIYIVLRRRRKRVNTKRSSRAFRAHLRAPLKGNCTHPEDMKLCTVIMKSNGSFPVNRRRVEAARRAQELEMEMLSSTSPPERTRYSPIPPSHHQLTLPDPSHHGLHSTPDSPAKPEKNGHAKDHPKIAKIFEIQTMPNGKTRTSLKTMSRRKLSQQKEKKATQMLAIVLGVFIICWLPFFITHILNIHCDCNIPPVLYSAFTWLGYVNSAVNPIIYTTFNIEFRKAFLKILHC
Assay: Test 1: binding activity for human D2 receptor ([3H]Spiperone, CHO cell membrane fraction)
Details: human D2 receptor, [3H]Spiperone
readout.kind: Ki (nM)

Below: 3 compounds and their reported Ki.
[
  {
    "compound": "CC(C)c1ncc2c(n1)CCN(CCN1CCN(c3nsc4ccccc34)CC1)C2=O [Example 180]",
    "Ki (nM)": 1560
  },
  {
    "compound": "O=C1c2cnc(Br)cc2CCN1CCN1CCN(c2nsc3ccccc23)CC1 [Example 62]",
    "Ki (nM)": 222
  },
  {
    "compound": "Cn1ncc2c1CCCN(CCN1CCN(c3nsc4ccccc34)CC1)C2=O [Example 44]",
    "Ki (nM)": 121
  }
]

A. CC(C)c1nc2c(o1)C(=O)N(CCN1CCN(c3nsc4ccccc34)CC1)CC2 [Example 66]
B. O=C1c2cnccc2C2(CC2)CN1CCN1CCN(c2noc3ccccc23)CC1 [Example 136]
Of A and B , whose reported Ki is numerically smaller? Choose, then provide that item's label.
A
